system.tested: Voltage-gated potassium channel subunit beta-2 (Rattus norvegicus)
assay.procedure: KvBeta positive modulators, primary screen, biochemical, NADPH fluorescence (AID 623);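 also: fluorescence intensity change per second fitted from 20 to 320 s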
condition.context: Recombinant KvBeta, NADPH fluorescence decrease slope, 10 min; at 10 µM; stronger effect = lower value
Field: NADPH fluorescence slope. Provide a value for each of the compounds that follow.
Numbers only.

Query: Need NADPH fluorescence slope of O=C(NCC(F)(F)F)Nc1cccnc1 , thanks.
Response: -5.2e-05

Query: Need NADPH fluorescence slope of CC(C)OC(=O)CSc1nnc(-c2ccccn2)n1-c1ccccc1 , thanks.
Response: -7.9e-05

Query: Need NADPH fluorescence slope of COc1cc(Cn2ccnc2)c(OC)cc1Cn1ccnc1 , thanks.
Response: -0.000118

Query: Need NADPH fluorescence slope of CCCCC(NS(=O)(=O)c1ccc(OC)cc1)C(=O)O (stereo unspecified) , thanks.
Response: -4e-05

Query: Need NADPH fluorescence slope of COc1ccc(-c2nc3cc(NC(=O)Cc4ccc(OC)c(OC)c4)ccc3o2)cc1 , thanks.
Response: -4.6e-05

Please report NADPH fluorescence slope for every entry that follows.
1. CCOC(=O)N1CCN(C(=O)c2cccn3c(=O)c4sccc4nc23)CC1
2. Cc1cc(-n2c(C)cc(C(=O)CSc3nnnn3-c3ccc(Cl)cc3)c2C)no1
3. CCOC(=O)C1CCN(c2c(N3CCCCCC3)c(=O)c2=O)CC1
4. Cc1nc2ccc(S(=O)(=O)NCC(=O)N3CCc4ccccc4C3)cc2s1
5. Nc1ccc2c3c(cccc13)CC2
6. Cn1c(NCCCO)nc2c1c(=O)n(Cc1ccccc1F)c(=O)n2C
7. O=C(CCN1CCc2ccccc2C1)Nc1ccc2c(c1)OCO2

Response:
1.5e-05
-3.2e-05
-4.7e-05
3.2e-05
-2.2e-05
-3.1e-05
-1.3e-05

====

assay.procedure: inhibitors of mutant huntingtin aggregation, primary screen, imaging, exon1htt(103Q)mCFP cells, high-content imaging (AID 483);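 also: compound exposure lasted 3 days before fixation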
condition.context: exon1htt(103Q)mCFP cell line, aggregate imaging, at 2 µM; stronger effect = higher value
Field: inhibition of aggregation. Provide a value for each of the molecules that follow.
Numbers only, in %.

Query: Need inhibition of aggregation of O=C(CCCn1c(=O)c2sccc2n(Cc2cc(=O)n3ccccc3n2)c1=O)NCc1ccco1 , thanks.
Response: -3.9

Please report inhibition of aggregation for every entry that follows.
1. CCCCCn1c(CN2CCN(C(=O)c3ccco3)CC2)nc2c1c(=O)n(C)c(=O)n2C
2. N#CC1=C(N)C(C#N)(C#N)[C@H](c2ccsc2)[C@H]2COCC=C12
3. CCOc1ccc(C2C=C(c3ccc(F)cc3)Nc3ncnn32)cc1 (stereo unspecified)
4. COC(=O)N1CC(c2ccccc2)CC1=O (stereo unspecified)
5. C=CCOC(=O)COc1ccc2c(C)c(C)c(=O)oc2c1C
6. O=c1c2cc(N3CCOCC3)ccc2[nH]c(=S)n1CCCN1CCCC1
7. CCCCCOc1ccc(C2NC(=O)NC2=O)cc1 (stereo unspecified)

Response:
1. -17.8
2. 1.7
3. -15.6
4. -22.4
5. -9.6
6. 6.2
7. -5.5

====

assay.procedure: inhibitors of E-selectin induction by TNFa, primary screen, imaging, HUVEC, immunofluorescence, MLSMR starter and 10KST1 sets (AID 487);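 as to nuclei count: 100% = median nuclei count of all wells on the same plate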
condition.context: HUVEC TNFalpha-induced E-selectin immunofluorescence imaging, at 2 µM; measured here: cell number, toxicity
Field: nuclei count. Provide a value for each of the compounds that follow.
One number for each entry, in %.

Query: Need nuclei count of COc1cccc(NS(=O)(=O)c2ccc3[nH]cc(C(=O)NC4CC4)c(=O)c3c2)c1 , thanks.
Response: 126

Query: Need nuclei count of O=C(CNc1ccc(Oc2ccccc2)cc1)N1CCOCC1 , thanks.
Response: 97.4

Please report nuclei count for every entry that follows.
1. COc1ccc2cc(C#N)c(SCC(=O)N3CCCC3)nc2c1
2. CCSc1nnc(NC(=O)C(C(F)(F)F)C(F)(F)F)s1
3. COn1c(SC2CCCCC2)nc2ccccc2c1=O
4. O=C1c2ccccc2C(=O)N1CC(O)Cn1nnc2ccccc21 (configuration not stated)
5. Cc1oc(-c2ccccc2F)nc1CS(=O)(=O)CC(=O)NCCCN1CCc2ccccc2C1
6. Cc1cc(C)cc(C(=O)N2CCC(C(N)=O)CC2)c1

Response:
1. 150
2. 146
3. 160
4. 99.5
5. 108
6. 122

Please report nuclei count for every entry that follows.
1. CCOC(=O)C1=C(c2ccccc2)NC(=O)NC1c1ccc(N(C)C)cc1 (configuration not stated)
2. Cc1[nH]nc2c1C(c1ccc(F)cc1)C1=C(CC(C)(C)CC1=O)N2 (configuration not stated)
3. O=c1sc(Nc2ccccc2)nc2ccsc12

Response:
1. 118
2. 102
3. 122

Please report nuclei count for every entry that follows.
1. CCOC(=O)C1CCN(c2c(N(C)Cc3ccco3)c(=O)c2=O)CC1
2. C=CCN(CC=C)c1nc2ccccc2nc1C(C#N)C(=O)OC(C)C (configuration not stated)
3. Cc1ccc(C)c(NC(=O)c2ccc3c(c2)N(Cc2ccc(F)cc2)C(=O)CS3=O)c1 (configuration not stated)
4. Cc1cccc(-c2nc(CN3CCCC(C(=O)NC4CCCC4)C3)c(C)o2)c1 (configuration not stated)

Response:
1: 114; 2: 173; 3: 122; 4: 103

Please report nuclei count for every entry that follows.
1. Cc1ccc(-n2c(SCC(=O)NCc3ccco3)nc3nc4c(cc3c2=O)COC(C)(C)C4)cc1
2. O=C(Nc1ccccc1)c1cc(N2CCOCC2)nc2ccccc12
3. CCSc1nc2sc3c(c2c2nnc(SCC(=O)NCc4ccco4)n12)CCCC3
4. COCCn1c(SCC(=O)Nc2sc(C)c(C)c2C#N)nnc1C(C)C
5. COc1ccc(C(=O)NCc2ccccc2OC)cc1
6. Cc1ccc(/C=c2\s/c(=C(/C#N)C(=O)N3CCCC3)n(Cc3ccco3)c2=O)s1
7. CCOC(=O)CNS(=O)(=O)c1cc(-c2n[nH]c(=O)c3ccccc23)ccc1C

Response:
176
149
178
78.2
111
136
151

====

Field: nuclei count. Provide a value for each of the compounds that follow.
assay.procedure: inhibitors of mutant huntingtin aggregation, primary screen, imaging, exon1htt(103Q)mCFP cells, high-content imaging (AID 483);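 also: compound exposure lasted 3 days before fixation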;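 as to nuclei count: percent of the per-plate median nuclei count of sample wells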
condition.context: exon1htt(103Q)mCFP cell line, aggregate imaging, at 2 µM; measured here: cell count, toxicity
Give bare numbers, in %.

Use these answered entries as a reference point.
Query: Need nuclei count of C=CCc1c(C)nc(SC)nc1Nc1ccc(C(=O)O)cc1 , thanks.
Response: 106

Query: Need nuclei count of Cc1ccc(-n2ncc3c(=O)n(CC(=O)NCc4ccco4)cnc32)cc1 , thanks.
Response: 110

Please report nuclei count for every entry that follows.
1. CC1Cc2ccccc2N1S(=O)(=O)c1ccc2c(c1)n(C)c(=O)c(=O)n2C (stereo unspecified)
2. Clc1ccc2c(c1)[C@H]1OCC[C@H]1[C@@H](c1ccco1)N2
3. Cc1cc(C(=O)NCc2cccnc2)n(-c2ccccc2)n1
4. COCCn1c(SCC(=O)Nc2sc(C)c(C)c2C#N)nnc1C(C)C

Response:
1: 96.4; 2: 98.8; 3: 103; 4: 73

====

Field: inhibition. Provide a value for each of the molecules that follow.
assay.procedure: inhibitors of E-selectin induction by TNFa, primary screen, imaging, HUVEC, immunofluorescence, MLSMR starter and 10KST1 sets (AID 487);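 as to inhibition: signal is fraction of cell area covered by stained E-selectin grains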
condition.context: HUVEC TNFalpha-induced E-selectin immunofluorescence imaging, at 2 µM; stronger effect = higher value
One number for each entry, in %.

Use these answered entries as a reference point.
Query: Need inhibition of CCOC(=O)c1ccc(NC(=O)COc2ccccc2OC)cc1 , thanks.
Response: 26.3

Query: Need inhibition of COc1cc(OC)cc(-c2nnc(SCC(=O)Nc3cc(C)on3)o2)c1 , thanks.
Response: -264

Query: Need inhibition of COc1ccc(C2CC(c3ccc(Cl)cc3Cl)Nc3nc(N)nn32)cc1 (configuration not stated) , thanks.
Response: -10.3

Query: Need inhibition of CCOC(=O)N1CCN(C(=O)CSCC(=O)Nc2nc(-c3ccc(OC)cc3)cs2)CC1 , thanks.
Response: 41.9

Query: Need inhibition of Cn1c(=O)c2c3c(sc2n2c(SCC(=O)c4ccccc4)nnc12)COC(C)(C)C3 , thanks.
Response: 44.5

Query: Need inhibition of CCn1cc(C(=O)N2CCOCC2)c(=O)c2cc(S(=O)(=O)N(C)C3CCCCC3)ccc21 , thanks.
Response: -29.5

Query: Need inhibition of COc1ccc(N2CC(C(=O)Nc3ccc(F)cc3F)CC2=O)cc1 (configuration not stated) , thanks.
Response: 12

Query: Need inhibition of Nc1cc(CN2C(=O)c3ccccc3C2=O)cc(Cl)c1O , thanks.
Response: -74.6

Please report inhibition for every entry that follows.
1. COc1ccc2c(c1)C(=O)N(c1ccccc1OC)C(=O)C2
2. CCOc1ccc(NS(=O)(=O)c2ccc(OCC(=O)N3CCCC3)cc2)cc1
3. N#Cc1c(NCCN)nc(NCc2ccccc2)c2c1CCN(Cc1ccccc1)C2
4. COC(=O)Nc1sc2c(c1C(=O)N1CCOCC1)CCC(C)C2 (configuration not stated)
5. Cn1c(SCC(=O)N2CCOCC2)nnc1-c1cnccn1

Response:
1: -22; 2: -56.1; 3: -151; 4: 2.3; 5: -36.3
